Where do the numbers come from? From patent US20240116988A1.

- Target System: human ROR1 (Homo sapiens, UniProt Q01973)
- Construct: host or cells: HEK 293T cells, Tet-on system induced with doxycycline
- Sequence (Q01973 30-937): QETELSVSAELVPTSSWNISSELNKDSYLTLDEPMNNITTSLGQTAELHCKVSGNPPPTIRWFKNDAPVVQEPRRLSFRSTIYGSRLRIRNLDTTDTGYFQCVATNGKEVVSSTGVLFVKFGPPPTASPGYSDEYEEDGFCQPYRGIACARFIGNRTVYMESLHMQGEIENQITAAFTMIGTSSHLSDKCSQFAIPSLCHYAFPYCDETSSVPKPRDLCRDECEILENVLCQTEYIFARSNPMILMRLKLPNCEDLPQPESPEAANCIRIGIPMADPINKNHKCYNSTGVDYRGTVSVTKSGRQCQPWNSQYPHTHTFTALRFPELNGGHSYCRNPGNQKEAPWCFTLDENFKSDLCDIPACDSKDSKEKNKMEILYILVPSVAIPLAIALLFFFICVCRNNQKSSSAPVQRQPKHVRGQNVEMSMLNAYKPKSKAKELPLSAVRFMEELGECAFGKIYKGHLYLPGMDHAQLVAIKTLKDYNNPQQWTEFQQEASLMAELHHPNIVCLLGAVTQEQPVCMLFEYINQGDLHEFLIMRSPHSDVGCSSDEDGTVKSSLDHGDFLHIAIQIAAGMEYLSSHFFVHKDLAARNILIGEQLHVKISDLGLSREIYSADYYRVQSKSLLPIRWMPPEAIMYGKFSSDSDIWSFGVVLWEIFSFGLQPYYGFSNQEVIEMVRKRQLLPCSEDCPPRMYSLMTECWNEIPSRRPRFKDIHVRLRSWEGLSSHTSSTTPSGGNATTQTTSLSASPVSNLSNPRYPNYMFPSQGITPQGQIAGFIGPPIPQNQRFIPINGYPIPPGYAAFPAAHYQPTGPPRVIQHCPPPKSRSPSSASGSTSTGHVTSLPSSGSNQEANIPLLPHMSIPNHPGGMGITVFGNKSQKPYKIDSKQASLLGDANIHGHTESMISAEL
- Method Notes: ROR1 high content cell-based binding assay
- Cond: read-out: ROR1 Binding 293T Human HC Cell Based Assay IC50
Positions of bridges follow the written chain, without caps; N, C: chain ends. Non-standard residues stand in square brackets, D forms with d. Residues, ends and D or L forms follow the SMILES beside them. NMeF = CN[C@@H](Cc1ccccc1)C(=O)O; Phg = N[C@H](C(=O)O)c1ccccc1; PEG3 = NCCOCCOCCOCCC(=O)O; NMeA = CN[C@@H](C)C(=O)O; Sar = CNCC(=O)O
pIC50 values, listed per item
Recall that pIC50 is obtained by taking minus log10 of the concentration measured in molar.

| Molecule | Test Value |
| --- | --- |
| CC(C)C[C@@H]1NC(=O)[C@H](Cc2ccc(O)cc2)NC(=O)[C@H](Cc2ccccc2)NC(=O)CSC[C@@H](C(=O)NCCOCCOCCOCCC(=O)N[C@@H](CCCCN)C(N)=O)NC(=O)[C@H](CC(C)C)NC(=O)[C@H](Cc2ccccc2)N(C)C(=O)[C@H](Cc2ccc(O)cc2)NC(=O)[C@H](Cc2c[nH]c3ccccc23)NC(=O)CNC(=O)[C@H](CO)NC(=O)[C@H](Cc2ccc(O)cc2)NC(=O)[C@H](C(C)C)NC1=O [Example 1085] ({CH2CO}-FYLVYSGWY[NMeF]LC[PEG3]K-NH2; thioether N-12) | 7.74 |

IN: Fill blank: measured pIC50 of the molecule CC(C)C[C@@H]1NC(=O)[C@H](Cc2ccccc2)NC(=O)CSC[C@@H](C(N)=O)NC(=O)[C@H](C(C)C)NC(=O)[C@H](Cc2ccccc2)N(C)C(=O)[C@H](CC(C)C)NC(=O)[C@H](Cc2c[nH]c3ccccc23)NC(=O)CN(C)C(=O)CNC(=O)[C@H](C(C)C)NC(=O)[C@H](Cc2c[nH]c3ccccc23)NC1=O [Example 1202] ({CH2CO}-FLWVG[Sar]WL[NMeF]VC-NH2; thioether N-11) is ____.
OUT: 7.17

IN: Fill blank: measured pIC50 of the molecule CC(C)C[C@@H]1NC(=O)[C@H](Cc2ccc(O)cc2)NC(=O)[C@H](Cc2ccccc2)NC(=O)CSC[C@@H](C(=O)NCC(=O)O)NC(=O)[C@H](CC(C)C)NC(=O)[C@H](Cc2ccccc2)N(C)C(=O)[C@H](Cc2ccc(O)cc2)NC(=O)[C@H](Cc2c[nH]c3ccccc23)NC(=O)CNC(=O)[C@H](CO)NC(=O)[C@H](Cc2ccc(O)cc2)NC(=O)[C@H](C(C)C)NC1=O [Example 1080] ({CH2CO}-FYLVYSGWY[NMeF]LCG-OH; thioether N-12) is ____.
OUT: 6.66

IN: Fill blank: measured pIC50 of the molecule CC(C)C[C@@H]1NC(=O)[C@H](Cc2ccc(O)cc2)NC(=O)[C@H](c2ccccc2)NC(=O)CSC[C@@H](C(=O)NCC(N)=O)NC(=O)[C@H](CC(C)C)NC(=O)[C@H](Cc2ccccc2)N(C)C(=O)[C@H](Cc2ccc(O)cc2)NC(=O)[C@H](Cc2c[nH]c3ccccc23)NC(=O)CNC(=O)[C@H](CO)NC(=O)[C@H](Cc2ccc(O)cc2)NC(=O)[C@H](C(C)C)NC1=O [Example 1093] ({CH2CO}-[Phg]YLVYSGWY[NMeF]LCG-NH2; thioether N-12) is ____.
OUT: 6.49

IN: Fill blank: measured pIC50 of the molecule CC(C)C[C@@H]1NC(=O)[C@H](Cc2ccccc2)N(C)C(=O)[C@H](Cc2ccc(O)cc2)NC(=O)[C@H](Cc2c[nH]c3ccccc23)NC(=O)CNC(=O)[C@H](CO)NC(=O)[C@H](Cc2ccc(O)cc2)NC(=O)[C@H](C(C)C)NC(=O)[C@H](C)N(C)C(=O)[C@H](Cc2ccc(O)cc2)NC(=O)[C@H](Cc2ccccc2)NC(=O)CSC[C@@H](C(=O)NCC(N)=O)NC1=O [Example 1062] ({CH2CO}-FY[NMeA]VYSGWY[NMeF]LCG-NH2; thioether N-12) is ____.
OUT: 7.70

* * *

- Target System: human ROR1 (Homo sapiens, UniProt Q01973)
- Construct: host or cells: HEK 293T cells, Tet-on system induced with doxycycline
- Method Notes: ROR1 high content cell-based binding assay
- Cond: read-out: ROR1 Binding 293T Human HC Cell Based Assay IC50
Positions of bridges follow the written chain, without caps; N, C: chain ends. Non-standard residues stand in square brackets, D forms with d. Residues, ends and D or L forms follow the SMILES beside them. NMeF = CN[C@@H](Cc1ccccc1)C(=O)O; AEEA = NCCOCCOCC(=O)O
Property: IC50 (µM)
Expressed in µM, but write only the number.

| Molecule | Target System | IC50 [µM] |
| --- | --- | --- |
| CC(C)C[C@@H]1NC(=O)[C@H](Cc2c[nH]c3ccccc23)NC(=O)[C@H](Cc2ccccc2)NC(=O)[C@H](Cc2c[nH]c3ccccc23)NC(=O)CNC(=O)[C@H](CO)NC(=O)[C@H](Cc2ccc(O)cc2)NC(=O)[C@H](C(C)C)NC(=O)[C@H](CCCNC(=N)N)NC(=O)[C@H](Cc2ccccc2)NC(=O)[C@H](Cc2ccccc2)NC(=O)CSC[C@@H](C(N)=O)NC1=O [Example 1014] ({CH2CO}-FFRVYSGWFWLC-NH2; thioether N-12) | human ROR1 (Homo sapiens, UniProt Q01973) | 0.707 |
| CC(C)C[C@@H]1NC(=O)[C@H](Cc2ccc(O)cc2)NC(=O)[C@H](Cc2ccccc2)NC(=O)CSC[C@@H](C(=O)NCC(N)=O)NC(=O)CNC(=O)[C@H](Cc2ccccc2)N(C)C(=O)[C@H](Cc2ccc(O)cc2)NC(=O)[C@H](Cc2c[nH]c3ccccc23)NC(=O)CNC(=O)[C@H](CO)NC(=O)[C@H](Cc2ccc(O)cc2)NC(=O)[C@H](C(C)C)NC1=O [Example 1065] ({CH2CO}-FYLVYSGWY[NMeF]GCG-NH2; thioether N-12) | human ROR1 (Homo sapiens, UniProt Q01973) | 0.022 |
| CC(C)C[C@@H]1NC(=O)[C@H](Cc2ccc(O)cc2)NC(=O)[C@H](Cc2ccccc2)NC(=O)CSC[C@@H](C(=O)NCC(N)=O)NC(=O)[C@H](CC(C)C)NC(=O)[C@H](Cc2ccccc2)N(C)C(=O)[C@H](Cc2ccc(O)cc2)NC(=O)[C@H](Cc2c[nH]c3ccccc23)NC(=O)CNC(=O)[C@H](Cc2cnc[nH]2)NC(=O)[C@H](Cc2ccc(O)cc2)NC(=O)[C@H](C(C)C)NC1=O [Example 1015] ({CH2CO}-FYLVYHGWY[NMeF]LCG-NH2; thioether N-12) | human ROR1 (Homo sapiens, UniProt Q01973) | 0.017 |
| CC(C)C[C@@H]1NC(=O)[C@@H](C)NC(=O)[C@H](Cc2ccccc2)N(C)C(=O)CNC(=O)[C@H](Cc2ccc(O)cc2)NC(=O)[C@H](Cc2ccccc2)NC(=O)CSC[C@@H](C(N)=O)NC(=O)[C@H](Cc2c[nH]c3ccccc23)NC(=O)[C@H](Cc2ccc(O)cc2)NC1=O [Example 1116] ({CH2CO}-FYG[NMeF][dA]LYWC-NH2; thioether N-9) | human ROR1 (Homo sapiens, UniProt Q01973) | 0.183 |
| CC(C)C[C@@H]1NC(=O)[C@H](Cc2ccc(O)cc2)NC(=O)[C@H](Cc2ccccc2)NC(=O)CSC[C@@H](C(=O)NCC(N)=O)NC(=O)[C@H](CC(C)C)NC(=O)[C@H](Cc2ccccc2)N(C)C(=O)[C@H](Cc2ccc(O)cc2)NC(=O)[C@H](Cc2c[nH]c3ccccc23)NC(=O)CNC(=O)[C@H](CO)NC(=O)[C@H](CC(N)=O)NC(=O)[C@H](C(C)C)NC1=O [Example 1024] ({CH2CO}-FYLVNSGWY[NMeF]LCG-NH2; thioether N-12) | human ROR1 (Homo sapiens, UniProt Q01973) | 0.62 |

IN: Fill blank: measured IC50 of the molecule CC(C)C[C@@H]1NC(=O)[C@H](Cc2ccccc2)NC(=O)CSC[C@@H](C(=O)NCC(N)=O)NC(=O)[C@H](C)NC(=O)[C@H](Cc2c[nH]c3ccccc23)NC(=O)[C@H](Cc2ccc(O)cc2)NC(=O)[C@H](Cc2c[nH]c3ccccc23)NC(=O)[C@H](Cc2c[nH]c3ccccc23)NC(=O)[C@H](CCC(=O)O)NC(=O)[C@H](Cc2ccc(O)cc2)NC(=O)[C@H](C(C)C)NC(=O)[C@H](Cc2c[nH]c3ccccc23)NC1=O [Example 1013] ({CH2CO}-FLWVYEWWYWACG-NH2; thioether N-12) is ____.
OUT: 0.637

IN: Fill blank: measured IC50 of the molecule CC(C)C[C@@H]1NC(=O)[C@H](Cc2ccc(O)cc2)NC(=O)[C@H](Cc2c[nH]c3ccccc23)NC(=O)CSC[C@@H](C(=O)NCC(N)=O)NC(=O)[C@H](CC(C)C)NC(=O)[C@H](Cc2ccccc2)N(C)C(=O)[C@H](Cc2ccc(O)cc2)NC(=O)[C@H](Cc2c[nH]c3ccccc23)NC(=O)CNC(=O)[C@H](CO)NC(=O)[C@H](Cc2ccc(O)cc2)NC(=O)[C@H](C(C)C)NC1=O [Example 1077] ({CH2CO}-WYLVYSGWY[NMeF]LCG-NH2; thioether N-12) is ____.
OUT: 0.002

IN: Fill blank: measured IC50 of the molecule CC(C)C[C@@H]1NC(=O)[C@H](Cc2ccccc2)NC(=O)CSC[C@@H](C(=O)NCCOCCOCC(=O)O)NC(=O)[C@H](C)NC(=O)[C@H](Cc2ccc(O)cc2)NC(=O)[C@H](Cc2ccc(O)cc2)NC(=O)[C@H](Cc2c[nH]c3ccccc23)NC(=O)CNC(=O)[C@H](Cc2ccc(O)cc2)NC(=O)[C@H](CCCNC(=N)N)NC(=O)[C@H](C(C)C)NC(=O)[C@H](Cc2c[nH]c3ccccc23)NC1=O [Example 1086] ({CH2CO}-FLWVRYGWYYAC[AEEA]-OH; thioether N-12) is ____.
OUT: 0.364

IN: Fill blank: measured IC50 of the molecule CC(C)C[C@@H]1NC(=O)[C@H](Cc2ccc(O)cc2)NC(=O)[C@H](Cc2ccccc2)NC(=O)CSC[C@@H](C(=O)NCC(N)=O)NC(=O)[C@H](CC(C)C)NC(=O)[C@H](Cc2ccccc2)N(C)C(=O)[C@H](Cc2ccc(O)cc2)NC(=O)[C@H](Cc2c[nH]c3ccccc23)NC(=O)CNC(=O)CNC(=O)[C@H](CCCNC(=N)N)NC(=O)[C@H](C(C)C)NC1=O [Example 1032] ({CH2CO}-FYLVRGGWY[NMeF]LCG-NH2; thioether N-12) is ____.
OUT: 0.392
